# Test system: HL-1
# measurement_notes: relative cell viability (CellTiter-Glo) vs DMSO control (% of DMSO control); higher = more viable cells
# test_parameters: oxygen condition: normoxia 72 h; 5000 nM
Where a name gives a salt, the structure may show the parent alone.
We label by threshold. Values of relative cell viability strictly beneath 100 are True. Values of 100 and up are False.

Task item: Problem: For the compound CC1=C(/C=C/C(C)=C/C=C/C(C)=C/C(=O)O)C(C)(C)CCC1 , is relative cell viability under 100?
Reply: False

Task item: Problem: For the compound N=C(N)NCCN1CCCCCCC1 [Guanethidine Sulfate] , is relative cell viability under 100?
Reply: False

Task item: Problem: For the compound O=C(c1cc(Cc2n[nH]c(=O)c3ccccc23)ccc1F)N1CCN(C(=O)C2CC2)CC1 , is relative cell viability under 100?
Reply: True

Task item: Problem: For the compound CCN(CC)C(=O)C1(c2ccccc2)CC1CN (stereo not given) [Milnacipran HCl] , is relative cell viability under 100?
Reply: False

Task item: Problem: For the compound C#C[C@]1(O)CC[C@H]2[C@@H]3CCC4=CC(=O)CC[C@@H]4[C@H]3CC[C@@]21C , is relative cell viability under 100?
Reply: False

Task item: Problem: For the compound Nc1nc(=O)c2c([nH]1)NCC(CNc1ccc(C(=O)N[C@@H](CCC(=O)O)C(=O)O)cc1)N2C=O (stereo not given in full) , is relative cell viability under 100?
Reply: True

Task item: Problem: For the compound C#C[C@]1(O)CC[C@H]2[C@@H]3CCc4cc(O)ccc4[C@H]3CC[C@@]21C , is relative cell viability under 100?
Reply: False

Task item: Problem: For the compound C[C@H](N[C@@H](CCc1ccccc1)C(=O)O)C(=O)N1CCC[C@H]1C(=O)O [Enalaprilat dihydrate] , is relative cell viability under 100?
Reply: False

Task item: Problem: For the compound COC(=O)C1=C(C)NC(C)=C(C(=O)OCC(C)C)C1c1ccccc1[N+](=O)[O-] (stereo not given) , is relative cell viability under 100?
Reply: False
